- experimental_system: Cyclin-dependent kinase 2/cyclin E1 (Homo sapiens) (UniProt P24864+P24941)
- experimental_protocol: Inhibition of C-terminal Avi-tagged CDK2/Cyclin E1 (unknown origin) extracted from Escherichia coli assessed as reduction in RB1 phosphorylation at S780 residue incubated for 60 mins in the presence of ATP by TR-FRET assay
- Format: protein-complex assay
measure: INH (µM)

query_smiles: O=C1N([C@@H]2CCC[C@@H](O)C2)c2nc(Nc3c[nH]nc3-c3cnn4cccnc34)ncc2C12CC2
measure: INH
quantitative_result: 0.006
//
query_smiles: O=C1N([C@@H]2CCC[C@@H](O)C2)c2nc(Nc3c[nH]nc3C(F)F)ncc2C12CC2
measure: INH
quantitative_result: 0.007
//
query_smiles: O=C1N([C@@H]2CCC[C@@H](O)C2)c2nc(Nc3c[nH]nc3O[C@@H]3CC3(F)F)ncc2C12CC2
measure: INH
quantitative_result: 0.006
//
query_smiles: O=C1N([C@@H]2CCC[C@@H](O)C2)c2nc(Nc3c[nH]nc3O[C@H]3CC3(F)F)ncc2C12CC2
measure: INH
quantitative_result: 0.006
//
query_smiles: O=C1N([C@@H]2CCC[C@@H](O)C2)c2nc(Nc3c[nH]nc3OCC(F)F)ncc2C12CC2
measure: INH
quantitative_result: 0.005
//
query_smiles: O=C1N([C@@H]2CCC[C@@H](O)C2)c2nc(Nc3c[nH]nc3[C@H]3CC3(F)F)ncc2C12CC2
measure: INH
quantitative_result: 0.006
